Listed below: AUC-RoB IY (AUC0.25–72h) values for each entry.
# measurement-notes: Intrayolk (IY) microinjection of two-cell stage zebrafish embryos (2 mg/kg), spatiotemporal fluorescence imaging and non-compartmental AUC
# Format: in vivo, zebrafish (Danio rerio)
# measurement-context: rest of body (non-yolk), intrayolk microinjection 2 mg/kg, 0.25 to 72 h
Report as a plain number; the unit RFU × 10^7 is understood.

1) C#CCNC(=O)CCCCCN1C(=CC=CC2=[N+](C)c3ccccc3C2(C)C)C(C)(C)c2ccccc21.[Cl-] [CY3A, Cyanine 3] | 3.21
2) C#CCNC(=O)CCCCC[N+]1=C(C=CC=CC=C2N(C)c3ccc4c(S(=O)(=O)[O-])cc(S(=O)(=O)[O-])cc4c3C2(C)C)C(C)(C)c2c1ccc1c(S(=O)(=O)[O-])cc(S(=O)(=O)[O-])cc21.[K+].[K+].[K+] [S-CY5.5A, S-Cyanine 5.5] | 1.02
3) C#CCNC(=O)CCCCCN1C(=CC=CC2=[N+](C)c3ccc(S(=O)(=O)[O-])cc3C2(C)C)C(C)(C)c2cc(S(=O)(=O)[O-])ccc21.[K+] [S-CY3A, S-Cyanine 3] | 7.65
4) C#CCNC(=O)c1ccc(-c2c3ccc(=[N+](C)C)cc-3oc3cc(N(C)C)ccc23)c(C(=O)[O-])c1 (single isomer, unassigned) [TAMRA] | 11.2

Here is the next item to consider.
Query C#CCNC(=O)c1ccc2c(c1)C(=O)OC21c2ccc(O)cc2Oc2cc(O)ccc21 [FAMA, Fam A, 5-Isomer] yields AUC-RoB IY (AUC0.25–72h) of 6.93
